- System: MDA-MB-231
- Protocol notes: cells
- Format: functional, cell-based
- Measurement context: Homo sapiens, MDA-MB-231, 48 h
- Description: Cytotoxicity against human MDA-MB-231 cells assessed as inhibition of cell proliferation after 48 hrs by MTT assay
pIC50: −log10 of the molar value.

Molecular string	Censoring sign	pIC50
O=C(CCCCCCNC(=O)Cn1cnc2c(Nc3ccccc3)nc(Nc3ccccc3)nc21)NO	=	5.81
O=C(CCCCCCNC(=O)Cn1cnc2c(Nc3ccccc3)ncnc21)NO	=	5.05
O=C(CCCCCNC(=O)Cn1cnc2c(Nc3ccccc3)ncnc21)NO	=	4.65
Nc1nc(N2CCOCC2)c2ncn(CC(=O)NCCCCCC(=O)NO)c2n1	=	4.38
O=C(CCCCNC(=O)Cn1cnc2c(Nc3ccccc3)ncnc21)NO	<	4.30

====

- System tested: Histone deacetylase (HDAC1 and HDAC2) (Homo sapiens, UniProt Q13547+Q92769)
- Protocol notes: Inhibition of HDAC1/HDAC2 isolated from human HeLa cells incubated for 30 mins by Color de Lys assay
- Format: cell-based
Readout label: IC50

Molecular string	Result
O=C(CCCNC(=O)Cn1cnc2c(N3CCOCC3)nc(Nc3ccccc3)nc21)NO	> 5 µM
O=C(CCCCCNC(=O)Cn1cnc2c(N3CCOCC3)ncnc21)NO	> 5 µM
O=C(CCNC(=O)Cn1cnc2c(N3CCOCC3)nc(Nc3ccccc3)nc21)NO	> 5 µM
